# Test system: SH-SY5Y cells
# experimental-parameters: NOI bioassay cytotoxicity; dosing range all; linear model
Please go through the items and note down their IC10, linear.
Give only the figure.

Could you tell me which IC10, linear is on file for "Oc1ccc(C(c2ccc(O)cc2)(C(F)(F)F)C(F)(F)F)cc1" ?
7.35E-05

Could you tell me which IC10, linear is on file for Cc1cc(Cc2cc(C)c(O)c(C)c2)cc(C)c1O [TMBPF, Bis(3,5-dimethyl-4-hydroxyphenyl)methane] ?
1.62E-05

Could you tell me which IC10, linear is on file for "CC(C)(c1cc(Cl)c(O)c(Cl)c1)c1cc(Cl)c(O)c(Cl)c1" ?
3.70E-08

Could you tell me which IC10, linear is on file for "Oc1ccc(Sc2ccc(O)cc2)cc1" ?
1.40E-04

Could you tell me which IC10, linear is on file for "Cc1ccc(S(=O)(=O)NC(=O)Nc2cccc(OS(=O)(=O)c3ccc(C)cc3)c2)cc1" ?
4.94E-05

Could you tell me which IC10, linear is on file for COC(=O)C(c1ccc(O)cc1)c1ccc(O)cc1 [Bz, Methyl bis(4-hydroxyphenyl)acetate] ?
3.73E-04

Could you tell me which IC10, linear is on file for "CCC(C)(c1ccc(O)cc1)c1ccc(O)cc1" ?
2.31E-04

----------
# Tested on: MCF7 (ARE/MMP)
# experimental-parameters: Bioassay ARE; cytotoxicity; dosing range all
Please go through the items and note down their IC10, linear transformed.
Give only the figure.

MCF7 (ARE/MMP) / IC10, linear transformed / CCC(C)(c1ccc(O)cc1)c1ccc(O)cc1 [BPB, 4,4'-(Butane-2,2-diyl)diphenol] : value?
3.73E-05

MCF7 (ARE/MMP) / IC10, linear transformed / Oc1ccc(C2(c3ccc(O)cc3)CCCCC2)cc1 [BPZ, 1,1'-Bis(4-hydroxyphenyl)cyclohexane] : value?
7.27E-05

MCF7 (ARE/MMP) / IC10, linear transformed / O=S(=O)(c1ccc(O)cc1)c1ccc(O)cc1 [BPS, 4,4'-Sulfonyldiphenol] : value?
1.39E-03

MCF7 (ARE/MMP) / IC10, linear transformed / CC(C)c1cc(C(C)(C)c2ccc(O)c(C(C)C)c2)ccc1O [BPG] : value?
6.03E-06

MCF7 (ARE/MMP) / IC10, linear transformed / CC(C)(c1ccc(OCC2CO2)cc1)c1ccc(OCC2CO2)cc1 (stereo not drawn) [BADGE, Bisphenol A diglycidyl ether] : value?
3.85E-05

MCF7 (ARE/MMP) / IC10, linear transformed / COC(=O)C(c1ccc(O)cc1)c1ccc(O)cc1 [Bz, Methyl bis(4-hydroxyphenyl)acetate] : value?
4.96E-04

MCF7 (ARE/MMP) / IC10, linear transformed / CC(c1ccc(O)cc1)c1ccc(O)cc1 [BPE, 4,4′-Ethylidenbisphenol] : value?
7.96E-05

MCF7 (ARE/MMP) / IC10, linear transformed / Oc1ccc(Sc2ccc(O)cc2)cc1 [BPT, 4,4'-Thiodiphenol] : value?
1.75E-04

MCF7 (ARE/MMP) / IC10, linear transformed / O=C(OCc1ccccc1)c1ccc(O)cc1 [BzPB, Benzyl 4-hydroxybenzoate] : value?
8.95E-05

MCF7 (ARE/MMP) / IC10, linear transformed / CC(C)(c1ccc(O)c(-c2ccccc2)c1)c1ccc(O)c(-c2ccccc2)c1 [BPPH, 2,2-Bis(2-hydroxy-5-biphenylyl)propane] : value?
2.86E-06

MCF7 (ARE/MMP) / IC10, linear transformed / Oc1ccc(C(c2ccc(O)cc2)(C(F)(F)F)C(F)(F)F)cc1 [BPAF] : value?
1.84E-05

MCF7 (ARE/MMP) / IC10, linear transformed / CC(C)(c1cc(Cl)c(O)c(Cl)c1)c1cc(Cl)c(O)c(Cl)c1 [TCBPA, 2,2',6,6'-Tetrachlorobisphenol A] : value?
7.84E-05

----------
# Tested on: MCF7 (ARE/MMP)
# experimental-parameters: cytotoxicity, MCF7, MMP readout
observable: IC10, MCF7, MMP (µM)
Return type: number; implicit unit µM.

Could you tell me which IC10, MCF7, MMP is on file for "CC(c1ccccc1)(c1ccc(O)cc1)c1ccc(O)cc1" ?
34.8

Could you tell me which IC10, MCF7, MMP is on file for "O=S(=O)(c1ccc(O)cc1)c1ccc(O)cc1" ?
1220

Could you tell me which IC10, MCF7, MMP is on file for "Oc1ccc(Sc2ccc(O)cc2)cc1" ?
205

Could you tell me which IC10, MCF7, MMP is on file for CC(C)(c1ccc(O)c(-c2ccccc2)c1)c1ccc(O)c(-c2ccccc2)c1 [BPPH, 2,2-Bis(2-hydroxy-5-biphenylyl)propane] ?
7.75

Could you tell me which IC10, MCF7, MMP is on file for "CC(C)(c1cc(Cl)c(O)c(Cl)c1)c1cc(Cl)c(O)c(Cl)c1" ?
93

Could you tell me which IC10, MCF7, MMP is on file for CC(C)(c1ccc(OCC2CO2)cc1)c1ccc(OCC2CO2)cc1 (stereo not shown) ?
78.7

Could you tell me which IC10, MCF7, MMP is on file for "Oc1ccc(C(c2ccc(O)cc2)(C(F)(F)F)C(F)(F)F)cc1" ?
27.2

Could you tell me which IC10, MCF7, MMP is on file for O=S(=O)(c1ccc(O)cc1)c1ccc(OCc2ccccc2)cc1 [BPS-MPE, 4-[4-(benzyloxy)benzenesulfonyl]phenol] ?
123

Could you tell me which IC10, MCF7, MMP is on file for O=C(OCc1ccccc1)c1ccc(O)cc1 [BzPB, Benzyl 4-hydroxybenzoate] ?
297

Could you tell me which IC10, MCF7, MMP is on file for "CC(C)c1cc(C(C)(C)c2ccc(O)c(C(C)C)c2)ccc1O" ?
8.72

Could you tell me which IC10, MCF7, MMP is on file for "CCC(C)(c1ccc(O)cc1)c1ccc(O)cc1" ?
35.1

Could you tell me which IC10, MCF7, MMP is on file for Oc1ccc(Cc2ccc(O)cc2)cc1 [BPF, Bis(4-hydroxyphenyl)methane] ?
526

Could you tell me which IC10, MCF7, MMP is on file for "CC(c1ccc(O)cc1)c1ccc(O)cc1" ?
78.6

Could you tell me which IC10, MCF7, MMP is on file for C=CCOc1ccc(S(=O)(=O)c2ccc(O)cc2)cc1 [BPS-MAE, 4-[[4-(Allyloxy)phenyl]sulfonyl]phenol] ?
844

Could you tell me which IC10, MCF7, MMP is on file for Oc1ccc(C2(c3ccc(O)cc3)CCCCC2)cc1 [BPZ, 1,1'-Bis(4-hydroxyphenyl)cyclohexane] ?
32.8

Could you tell me which IC10, MCF7, MMP is on file for Cc1cc(Cc2cc(C)c(O)c(C)c2)cc(C)c1O [TMBPF, Bis(3,5-dimethyl-4-hydroxyphenyl)methane] ?
14.2

----------
# system-name: Estrogen Receptor ERα (Homo sapiens)
# Sequence (P03372 311-547 limits assumed): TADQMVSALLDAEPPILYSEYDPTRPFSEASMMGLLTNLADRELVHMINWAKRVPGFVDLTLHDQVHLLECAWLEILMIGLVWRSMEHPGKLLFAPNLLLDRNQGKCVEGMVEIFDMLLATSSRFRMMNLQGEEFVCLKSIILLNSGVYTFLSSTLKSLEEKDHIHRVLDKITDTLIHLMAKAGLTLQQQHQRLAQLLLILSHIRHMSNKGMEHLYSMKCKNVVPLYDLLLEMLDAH
# test-method-notes: cell-based
# experimental-parameters: effect
Please go through the items and note down their EC10, ERα.
Return type: number; implicit unit µM.

Estrogen Receptor ERα (Homo sapiens) / EC10, ERα / C=CCOc1ccc(S(=O)(=O)c2ccc(O)cc2)cc1 [BPS-MAE, 4-[[4-(Allyloxy)phenyl]sulfonyl]phenol] : value?
14.1

Estrogen Receptor ERα (Homo sapiens) / EC10, ERα / COC(=O)C(c1ccc(O)cc1)c1ccc(O)cc1 [Bz, Methyl bis(4-hydroxyphenyl)acetate] : value?
1.06

Estrogen Receptor ERα (Homo sapiens) / EC10, ERα / Oc1ccc(Cc2ccc(O)cc2)cc1 [BPF, Bis(4-hydroxyphenyl)methane] : value?
0.995

Estrogen Receptor ERα (Homo sapiens) / EC10, ERα / CC(C)Oc1ccc(S(=O)(=O)c2ccc(O)cc2)cc1 [D8, 4-((4-Isopropoxyphenyl)sulfonyl)phenol] : value?
11.2

Estrogen Receptor ERα (Homo sapiens) / EC10, ERα / O=S(=O)(c1ccc(O)cc1)c1ccc(O)cc1 [BPS, 4,4'-Sulfonyldiphenol] : value?
1.43

Estrogen Receptor ERα (Homo sapiens) / EC10, ERα / CC(C)c1cc(C(C)(C)c2ccc(O)c(C(C)C)c2)ccc1O [BPG] : value?
0.902

Estrogen Receptor ERα (Homo sapiens) / EC10, ERα / O=C(OCc1ccccc1)c1ccc(O)cc1 [BzPB, Benzyl 4-hydroxybenzoate] : value?
3.02

Estrogen Receptor ERα (Homo sapiens) / EC10, ERα / O=S(=O)(c1ccc(O)cc1)c1ccccc1O [2,4-BPS, 2,4'-Dihydroxydiphenyl sulfone] : value?
19.8

----------
# test-method-notes: Abiotic CYP (aCYP) oxidation, remaining parent compound (Cparent-Ratio)
# experimental-parameters: Table S11, measured simultaneously with bioassay
Please go through the items and note down their Cparent-Ratio Rep.2.
Give only the figure.

Could you tell me which Cparent-Ratio Rep.2 is on file for CC(C)(c1ccc(O)c(-c2ccccc2)c1)c1ccc(O)c(-c2ccccc2)c1 [BPPH, 2,2-Bis(2-hydroxy-5-biphenylyl)propane] ?
0.78

Could you tell me which Cparent-Ratio Rep.2 is on file for Cc1ccc(S(=O)(=O)NC(=O)Nc2cccc(OS(=O)(=O)c3ccc(C)cc3)c2)cc1 [Pergafast] ?
0.61

Could you tell me which Cparent-Ratio Rep.2 is on file for Cc1ccc(S(=O)(=O)NC(=O)Nc2ccc(Cc3ccc(NC(=O)NS(=O)(=O)c4ccc(C)cc4)cc3)cc2)cc1 [BTUM] ?
0.18

Could you tell me which Cparent-Ratio Rep.2 is on file for CC(C)(c1ccc(O)cc1)c1ccc(O)cc1 [BPA, 4,4'-(Propane-2,2-diyl)diphenol, reference compound] ?
0.88

Could you tell me which Cparent-Ratio Rep.2 is on file for CC(C)c1cc(C(C)(C)c2ccc(O)c(C(C)C)c2)ccc1O [BPG] ?
0.53

Could you tell me which Cparent-Ratio Rep.2 is on file for Cc1cc(Cc2cc(C)c(O)c(C)c2)cc(C)c1O [TMBPF, Bis(3,5-dimethyl-4-hydroxyphenyl)methane] ?
0.59
